Biological target: T1, cynomolgus monkey B7-H4 on the cell surface (cynomolgus monkey, UniProt A0A2K5U6P5 25-282)
T1 construct: whole, on cells; also called cyno B7-H4; CHO-K1/cynoB7-H4
T1 sequence: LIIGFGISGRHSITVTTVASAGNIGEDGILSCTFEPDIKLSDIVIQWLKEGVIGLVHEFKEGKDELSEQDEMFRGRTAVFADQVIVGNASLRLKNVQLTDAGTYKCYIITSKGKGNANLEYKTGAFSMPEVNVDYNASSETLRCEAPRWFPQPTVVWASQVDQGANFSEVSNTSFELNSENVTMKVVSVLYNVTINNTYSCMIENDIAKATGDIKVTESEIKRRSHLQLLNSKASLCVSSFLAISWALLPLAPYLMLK
Test: FACS, CHO-K1/cyno B7-H4 cells
Reported property: pEC50
Note on pEC50: it is the negative log10 of concentration, concentration in mol/L.

Binder: PR006004 (antibody, V domains shown, also called R7004M1A2; anti-human B7-H4 HCAb monoclonal antibody) VH: EVQLVESGGGLVQPGGSLRLSCAASGFAFSNYWMHWARQVPGKGRVWISRISGDGRSTSYADSVKGRFTISRDNAKNMVYLQMNNLRAEDTAVYYCARDRFGDDYYYGMNVWGQGTTVTVSS
Reported property: pEC50
Reported result: 8.78
//
Binder: PR007440 (antibody, IgG1, V domains shown, also called PTM variant (G55S) of PR006004) VH: EVQLVESGGGLVQPGGSLRLSCAASGFAFSNYWMHWARQVPGKGRVWISRISGDSRSTSYADSVKGRFTISRDNAKNMVYLQMNNLRAEDTAVYYCARDRFGDDYYYGMNVWGQGTTVTVSS
Reported property: pEC50
Reported result: 8.51
//
Binder: PR006008 (antibody, IgG1, V domains shown, also called R7004M6D4; anti-human B7-H4 HCAb monoclonal antibody) VH: EVQLVESGGGLVQPGGSLRLSCAASGFTFTDFWMHWVRQVPGKGREWVSRISPDGSSTSYEDSVKGRFTISRDNAKNTVYLQMHGLRAEDTAVYYCTRFSTGWHRIEYFQHWGQGTLVTVSS
Reported property: pEC50
Reported result: 9.36

pEC50 lookup needed for PR007441 (antibody, IgG1, V domains shown, also called PTM variant (G55S) of PR006008) VH: EVQLVESGGGLVQPGGSLRLSCAASGFTFTDFWMHWVRQVPGKGREWVSRISPDSSSTSYEDSVKGRFTISRDNAKNTVYLQMHGLRAEDTAVYYCTRFSTGWHRIEYFQHWGQGTLVTVSS , thanks.
9.14
